Target: Cytochrome P450 2C19 (Homo sapiens)
Test: blockers of cytochrome P450 2C19 activity – biochemical, luminescence, ADME assay, primary screen (AID 778);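 also: plate controls were negative control wells for no effect and 2.5 mM tranylcypromine positive control for full effect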
Conditions: CYP2C19 Supersomes, luciferin-H EGE luminescence, 30 min; at 5 µM; hits give high values
Hit rate of the full screen: of about 96,000 compounds, about 20,000 (21%) were called active. These entries were drawn from the full list.
# inhibition listing for each entry below
Lab book: enter the figure in %, no units written.

Known inhibition results, listed for orientation:
Value of measured inhibition for the entry O=C(CCC(=O)OCc1cccc(C(=O)Oc2ccccc2)c1)Nc1cccc2ccccc12 : 3.8

Value of measured inhibition for the entry Fc1ccc2nc(Nc3nc4c(s3)CCCC4)sc2c1 : -8.1

Value of measured inhibition for the entry Cc1ccc2[nH]c3c(=O)n(Cc4ccccn4)cnc3c2c1 : -0.8

Value of measured inhibition for the entry O=C(O)CCC(=O)NCc1ccc(C(=O)O)cc1 : 3.2

Value of measured inhibition for the entry O=C(CCCOc1ccccc1)Nc1cccc(C(=O)O)c1 : 1.2

***
Value of measured inhibition for the entry O=C(Cn1nnc(-c2ccccc2)n1)NCc1ccccc1 : 45.4

Value of measured inhibition for the entry CN(C)C(CNC(=O)CCCOc1ccccc1)c1ccco1 (configuration not stated) : 84.2

Value of measured inhibition for the entry COc1ccc(NC(=O)Nc2ccc3nc(C)c(C)nc3c2)cc1 : 3.2

Value of measured inhibition for the entry Cc1cccc(NC(=O)c2ccc(OCC(=O)NCc3ccccc3)cc2)c1C : -8

Value of measured inhibition for the entry O=C(NCCc1ccccc1)c1ccc(OCCOc2ccccc2)cc1 : -7.8

Value of measured inhibition for the entry O=C(CNC(=O)c1ccc(Cl)cc1Cl)NCC(=O)Nc1ccccc1N1CCOCC1 : 20.6

Value of measured inhibition for the entry O=C(CCOc1ccccc1)NCc1ccccc1 : 57.6

Hello, the source for this data is PubChem BioAssay AID778, in case you need it.
